- Tested on: DYT1 patient plasma
- test_method_notes: Whole plasma metabolomics (Biocrates MxP Quant 500 Kit), DYT1 vs Healthy Controls
- measurement_parameters: DYT1-Dystonia vs Healthy Control
endpoint_label: -LogP

- smiles_record: "Cc1ccc(OS(=O)(=O)O)cc1"
  endpoint_label: "-LogP"
  reported_result: 1.433
- smiles_record: "NCCCCC(=O)O"
  endpoint_label: "-LogP"
  reported_result: 2.862
- smiles_record: "CCCCCCCCCCCCCCCCCCCCCCCCCCCC(=O)OC[C@@H](O)COP(=O)([O-])OCC[N+](C)(C)C"
  endpoint_label: "-LogP"
  reported_result: 1.585
- smiles_record: "N[C@@H](CSSC[C@H](N)C(=O)O)C(=O)O"
  endpoint_label: "-LogP"
  reported_result: 2.546
- smiles_record: "N[C@@H](CC(=O)O)C(=O)O"
  endpoint_label: "-LogP"
  reported_result: 1.99
- smiles_record: "CCCCCCCCCCCCCCCCCCCCCCCCCC(=O)OC[C@@H](O)COP(=O)([O-])OCC[N+](C)(C)C"
  endpoint_label: "-LogP"
  reported_result: 2.027
